Quick reference: TGI of the listed items.
# Tested on: MDA-MB-468 breast
# test protocol: NCI tumour cell line growth inhibition, 48 h
quantity kind: TGI (µM)

>>> print(df.to_string())
                                   molecule  quantity_kind  units_symbol  recorded_number
0  CN1CCN(CCOc2ccc(-c3cnc4c(-c5ccc(C(F)(F)F)cc5)cnn4c3)cc2)CC1            TGI            µM             2.95
1  O=C(Nc1cccc(-n2cc(-c3ccncc3)c(-c3ccc(Cl)c(O)c3)n2)c1)c1ccc(N2CCOCC2)c(C(F)(F)F)c1            TGI            µM             26.6
2  CC1(N)CCN(c2cccnc2NC(=O)c2nc(-c3ncccc3C(F)(F)F)cnc2N)CC1            TGI            µM             52.8
3  CCn1cc(C(=O)N/N=C/c2ccccc2)c(=O)c2cc(F)c(N3CCNC(C)C3)c(F)c21 (centres undefined)            TGI            µM             3.12

###

# Test system: MDA-MB-468 breast
# test protocol: NCI tumour cell line growth inhibition, 48 h; in the data active means GI50 below about 0.43 µM; inactive means the rest
Classes used: active, inactive

compound	group label
C[C@]12CCc3sc(NCCc4ccccc4)nc3C1=CC[C@@H]1[C@@H]2CC[C@]2(C)C(=O)CC[C@@H]12	inactive
COc1ccc(-c2nc(-c3ccccc3)c(-c3ccccc3)[nH]2)cc1OC1CCCC1	inactive
COC(=O)[C@@]12OC[C@]34[C@H]([C@@H](O)[C@@H]1O)[C@@]1(C)[C@H](O)C(=O)C=C(C)[C@@H]1C[C@H]3OC(=O)C(OC(C)=O)[C@@H]24 (some centres undefined)	active
CN(C)C(=S)/N=c1\ssc(=S)n1Cc1cccnc1	inactive
CCN(Cc1ccc(F)cc1)c1ccc(CO)c(F)c1	active
CCCNC(=O)CCC(C)C1CCC2C3C(C[C@H](OC(C)=O)[C@]12C)[C@@]1(C)CCC2(C[C@H]1C[C@H]3OC(C)=O)OOC1(CC[C@]3(C)C4C[C@H](OC(C)=O)[C@]5(C)C(C(C)CCC(=O)NCCC)CCC5C4[C@H](OC(C)=O)C[C@@H]3C1)OO2 (some centres undefined)	inactive
C=CC1CN2CCC1CC2C(O)c1ccnc2ccc(OC)cc12 (centres undefined)	inactive
CCN1CCN(c2ccc(NC(=O)Nc3ccc(-c4cc(C(=O)NC(C)C)c5ncccc5n4)cc3)cc2C(F)(F)F)CC1	inactive
O=C1c2cccc(NCCN=Cc3cc([N+](=O)[O-])ccc3O)c2C(=O)c2c(NCCN=Cc3cc([N+](=O)[O-])ccc3O)cccc21	inactive
COc1ccc(C(=O)/C=C/c2cccc([N+](=O)[O-])c2)c(OC)c1	inactive
CCCc1cc(=O)[nH]c(-n2nc(C)cc2C)n1	inactive
CCC(C)[C@H]1O[C@]2(C=C[C@@H]1C)C[C@@H]1C[C@@H](C/C=C(\C)[C@@H](OC3C[C@H](OC)C(O[C@H]4C[C@H](OC)[C@@H](O)[C@H](C)O4)[C@H](C)O3)[C@@H](C)/C=C/C=C3\CO[C@@H]4[C@H](O)C(C)=C[C@@H](C(=O)O1)[C@]34O)O2 (some centres undefined)	inactive
NC(=O)c1ccc(I)c(N=O)c1	inactive
COc1cccc2c1ccc1nc3cccc(C(=O)N[C@H](C)CN(C)C)c3nc12	active
